system: PER-704; test: IC50 cell viability (Alamar Blue, 96 h)
What IC50 cell viability was measured for each of the following?
Please make sure the unit comes right after the number.

Some compounds with recorded IC50 cell viability:
| compound | studySystem | observable | reportedMeasurement |
| --- | --- | --- | --- |
| O=C(CCCCCCC(=O)Nc1ccccc1)NO | PER-704 | IC50 cell viability | 2140 nM |
| CN(Cc1cnc2nc(N)nc(N)c2n1)c1ccc(C(=O)N[C@@H](CCC(=O)O)C(=O)O)cc1 [Methotrexate] | PER-704 | IC50 cell viability | 106 nM |

Hi, could you look up IC50 cell viability for each item in my list?
1. O=C1c2c(O)ccc(O)c2C(=O)c2c(NCCNCCO)ccc(NCCNCCO)c21
2. C/C(=C\c1csc(C)n1)[C@@H]1C[C@@H]2O[C@]2(C)CCC[C@H](C)[C@H](O)[C@@H](C)C(=O)C(C)(C)[C@@H](O)CC(=O)O1

OUT:
142 nM
3.8 nM
